Listing of entries alongside the reported T.vaginalis_%inb_Rep2.
Tested on: Trichomonas vaginalis G3 trophozoites
Settings: parasite screen at 1 µg/mL, replicate 2
// units = %; emit number, no label

Illustrative cases are given below, each with its answer.
1. Cc1cc(O)c2c(c1)C(=O)c1c(c(O)cc(O)c1-c1c(O)cc(O)c3c1C(=O)c1cc(C)cc(O)c1C3=O)C2=O	5.90
2. CC1=C(O)C(=O)[C@@H]2O[C@@H]2C1=O	12.25

## Input Fill in T.vaginalis_%inb_Rep2 for record Cc1cc2nc3c(=O)[nH]c(=O)nc-3n(C[C@H](O)[C@H](O)[C@H](O)CO)c2cc1N(C)C
## Output 14.32

## Input Specify reported T.vaginalis_%inb_Rep2 for the compound shown: Cc1cc(O)c(C=O)c2c1C(=O)Oc1c(CO)c(O)c3c(c1O2)C(O)OC3=O (stereo not shown)
## Output 7.43

## Input Please supply the value of reported T.vaginalis_%inb_Rep2 for the item CS(=O)(=O)c1ccc([C@@H](O)[C@@H](CO)NC(=O)C(Cl)Cl)cc1
## Output 12.00

## Input Identify measured T.vaginalis_%inb_Rep2 corresponding to CO[C@H]1C[C@@H]2CC[C@@H](C)[C@@](O)(O2)C(=O)C(=O)N2CCCC[C@H]2C(=O)O[C@H]([C@H](C)C[C@@H]2CC[C@@H](OP(C)(C)=O)[C@H](OC)C2)CC(=O)[C@H](C)/C=C(\C)[C@@H](O)[C@@H](OC)C(=O)[C@H](C)C[C@H](C)/C=C/C=C/C=C/1C
## Output 19.01

## Input Assign T.vaginalis_%inb_Rep2 to the following record: CC[C@@H](C)/C=C(C)/C=C/C(=O)c1c(O)c(-c2ccc(O)cc2)cn(O)c1=O
## Output 14.93

## Input State, in one line, measured T.vaginalis_%inb_Rep2 of CO[C@H]1C[C@@H]2CC[C@@H](C)[C@@](O)(O2)C(=O)C(=O)N2CCCC[C@H]2C(=O)O[C@H]([C@H](C)C[C@@H]2CC[C@@H](O)[C@H](OC)C2)CC(=O)[C@H](C)/C=C(\C)[C@@H](O)[C@@H](OC)C(=O)[C@H](C)C[C@H](C)/C=C/C=C/C=C/1C
## Output 12.55

## Input Quickly give me recorded T.vaginalis_%inb_Rep2 for C=CC1(C)CC(OC(=O)CSC2CC3CCC(C2)N3C)C2(C)C(C)CCC3(CCC(=O)C32)C(C)C1O (stereo not shown)
## Output 11.55

## Input Using known records, supply T.vaginalis_%inb_Rep2 for C[C@@H]1C[C@H]2O[C@@H]2/C=C\C=C\C(=O)Cc2c(Cl)c(O)cc(O)c2C(=O)O1
## Output 10.33
